# test.description: in vitro
# test.conditions: human, hela cells, % viability
Please respond with reported viability at 28.5 h, 10 µM for every item in the list.
Express the result in % but write the number alone.

[ask] Quick one: viability at 28.5 h, 10 µM of Cc1cc(C(=O)NC(C)c2ccccn2)c2ccccc2n1 (stereo not shown) ?
[reply] 96.9

[ask] Quick one: viability at 28.5 h, 10 µM of CC(C)(C)OC(=O)N1CCN(CCOc2ccc(NC(=O)OCc3ccccc3)cc2F)CC1 ?
[reply] 108

[ask] Quick one: viability at 28.5 h, 10 µM of Cc1ccc(S(=O)(=O)OCCOS(=O)(=O)c2ccc(C)cc2)cc1 ?
[reply] 96.2

[ask] Quick one: viability at 28.5 h, 10 µM of C/C(=N/NC(N)=S)c1ccccc1OCC(=O)O ?
[reply] 97.9

[ask] Quick one: viability at 28.5 h, 10 µM of O=C1N=C(NC2CCCCCC2)SC1Cc1ccc(O)cc1 (stereo not shown) ?
[reply] 109

[ask] Quick one: viability at 28.5 h, 10 µM of O=C(NCc1ccco1)c1ccc2c(c1)OCO2 ?
[reply] 94.4

[ask] Quick one: viability at 28.5 h, 10 µM of COc1ccc(-c2nc(NC(=O)c3ccco3)cnc2-c2cccc(C)c2)cn1 ?
[reply] 96.8

[ask] Quick one: viability at 28.5 h, 10 µM of CN1CCN(c2ccccc2NC(=O)c2ccc3c(c2)OCCO3)CC1 ?
[reply] 101

[ask] Quick one: viability at 28.5 h, 10 µM of CCN(CC)CCNC(=O)c1c(C)oc2cc(Br)c(OC)cc12 ?
[reply] 87.3

[ask] Quick one: viability at 28.5 h, 10 µM of O=C(CC1CCCC1)N1CCC(c2cc(CCOc3cccc(C(F)(F)F)c3)[nH]n2)C1 (stereo not shown) ?
[reply] 89.4

[ask] Quick one: viability at 28.5 h, 10 µM of O=C(NC1CCCCC1)c1ccccc1NC(=O)C1CCCCC1C(=O)O (stereo not shown) ?
[reply] 97

[ask] Quick one: viability at 28.5 h, 10 µM of COc1ccccc1OCCn1c(=N)n(CC(N)=O)c2ccccc21 [CBK268822C] ?
[reply] 88.6

[ask] Quick one: viability at 28.5 h, 10 µM of CCN1C(=O)CC2(C1=O)C(=O)N(Cc1cccc(CN3C(=O)CCC3=O)c1)c1ccccc12 (stereo not shown) ?
[reply] 104

[ask] Quick one: viability at 28.5 h, 10 µM of COc1ccc(S(=O)(=O)N(C)CC(=O)Nc2ccccc2C(F)(F)F)cc1OC ?
[reply] 106

[ask] Quick one: viability at 28.5 h, 10 µM of Cc1cccn2c(=O)c(/C=C3\SC(=S)N(Cc4ccccc4)C3=O)c(NCCCn3ccnc3)nc12 ?
[reply] 102

[ask] Quick one: viability at 28.5 h, 10 µM of CN(C)c1nc(N2CCN(c3ccc(F)cc3)CC2)cc(C(F)(F)F)n1 ?
[reply] 91.1

[ask] Quick one: viability at 28.5 h, 10 µM of CCOC(=O)c1c(NC(=O)/C=C/C(=O)O)sc2c1CCCCC2 ?
[reply] 91.5

[ask] Quick one: viability at 28.5 h, 10 µM of CCN1CCC2(C/C=C/CCOc3ccccc3C(=O)NCCCNC2=O)CC1 ?
[reply] 83.3

[ask] Quick one: viability at 28.5 h, 10 µM of O=C(CSc1nnnn1-c1cccnc1)NC1CCCCCC1 ?
[reply] 83.9

Source: paper PMC12040169
